biological target: recombinant soluble homotrimeric HA of A/chicken/Vietnam/NCVD-016/08 (H5N1) (Influenza A virus A/chicken/Vietnam/NCVD-016/2008(H5N1)); assay: trimeric HA microarray, transfection supernatant set 4; settings: remark: other sources report otherwise
endpoint label: Trimeric HA Binding: RLU (RLU)
All answers are understood in RLU, so give the number only.

I am curious: what Trimeric HA Binding: RLU value has been reported for TCN-523 (5248_A17) (antibody, V domains shown) VH: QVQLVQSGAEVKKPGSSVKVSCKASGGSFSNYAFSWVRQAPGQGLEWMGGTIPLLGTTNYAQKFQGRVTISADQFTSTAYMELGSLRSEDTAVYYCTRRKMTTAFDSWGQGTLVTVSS VL: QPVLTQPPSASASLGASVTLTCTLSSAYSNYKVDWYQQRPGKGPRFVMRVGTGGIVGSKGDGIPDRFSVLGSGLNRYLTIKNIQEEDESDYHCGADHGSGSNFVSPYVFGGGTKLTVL ?
24000

Also need TCN-535 (5246_P19) (antibody, V domains shown) VH: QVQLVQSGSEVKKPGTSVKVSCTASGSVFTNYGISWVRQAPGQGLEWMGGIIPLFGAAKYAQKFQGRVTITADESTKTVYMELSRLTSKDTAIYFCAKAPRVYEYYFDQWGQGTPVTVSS VL: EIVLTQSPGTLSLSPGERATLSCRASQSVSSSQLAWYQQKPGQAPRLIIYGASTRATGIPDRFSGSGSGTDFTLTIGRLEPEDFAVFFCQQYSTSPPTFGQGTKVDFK , thanks.
20900

Also need TCN-504 (3251_K17) (antibody, V domains shown) VH: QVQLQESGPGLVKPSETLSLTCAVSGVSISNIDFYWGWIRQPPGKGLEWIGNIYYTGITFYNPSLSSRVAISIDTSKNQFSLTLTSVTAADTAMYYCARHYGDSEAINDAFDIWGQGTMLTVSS VL: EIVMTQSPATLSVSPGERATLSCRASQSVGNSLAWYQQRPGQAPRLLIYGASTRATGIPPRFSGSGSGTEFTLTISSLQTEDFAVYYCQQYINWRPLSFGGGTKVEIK , thanks.
19200
